Test system: RXF 393 renal
MEASUREMENT_DESCRIPTION: NCI-60 one-dose screen, 48 h
ASSAY_CONTEXT: 10 µM unless noted
About 83,000 compounds went through this panel and 20% of them were active in at least one assay; those are over-represented in the sample as a whole. Activity calls are given as the source filed them. Rule for the calls: active = growth percent below 10; inactive = the rest.
Classes used: 1.0 (active), 0.0 (inactive)

- O=C(CCl)Nc1cc(O)c2c(c1)C(=O)c1cccc(O)c1C2=O: 1.0
- O=C(CCl)Nc1ccc2c(c1)C(=O)c1ccccc1C2=O: 0.0
- CCN1C(=O)/C(=C/N2N=C(c3ccc(Cl)cc3)CC2c2ccc(OC)cc2)SC1=S (stereo unspecified): 0.0
- CS(=O)(=O)c1ccc(C(=O)N/N=C/c2ccc3c(c2)OCO3)cc1: 0.0
- O/N=C1\c2ccccc2-c2ccc(Br)cc21: 0.0
- CCN1C(=O)C(C)C=C(C)C=C1C (stereo unspecified): 0.0
